Each entry below carries its reported relative viability.
Test system: SK-LU-1
Assay: relative viability (nuclei count vs DMSO), 5 days (fraction); higher = more cells survive
Conditions: first compound 0.3162 µM
Form rule: numeric answer, no unit written next to it.

Known relative viability results, listed for orientation:
CCN(CC)CCCCNc1ncc2cc(-c3cc(OC)cc(OC)c3)c(NC(=O)NC(C)(C)C)nc2n1 + Cc1nc(Nc2ncc(C(=O)Nc3c(C)cccc3Cl)s2)cc(N2CCN(CCO)CC2)n1 [Dasatinib] (partner 0.075 µM) :: 0.194
O=c1cc(N2CCOCC2)oc2c(-c3cccc4c3sc3ccccc34)cccc12 + CC1(C)CCC(c2ccc(Cl)cc2)=C(CN2CCN(c3ccc(C(=O)NS(=O)(=O)c4ccc(N[C@H](CCN5CCOCC5)CSc5ccccc5)c(S(=O)(=O)C(F)(F)F)c4)cc3)CC2)C1 [Navitoclax] (partner 0.5 µM) :: 1.18
O=c1cc(N2CCOCC2)oc2c(-c3cccc4c3sc3ccccc34)cccc12 + Cc1nc(NC(=O)N2CCC[C@H]2C(N)=O)sc1-c1ccnc(C(C)(C)C(F)(F)F)c1 [Alpelisib] (partner 2 µM) :: 1.09

(Q) Need relative viability of CCN(CC)CCCCNc1ncc2cc(-c3cc(OC)cc(OC)c3)c(NC(=O)NC(C)(C)C)nc2n1 + O=C(CCCCCCC(=O)Nc1ccccc1)NO [Vorinostat] (partner 1 µM) , thanks.
(A) 0.973
